Origin of values: patent US20250215072A1

# targetOrTestSystem: T1, human GARP-proTGFβ1 complex (human, UniProt P01137 30-390; Q14392 20-627)
# T1 construct: also called hGARP-proTGFβ1; hGARP
# T1 sequence (P01137 30-390, chain 1 of 2): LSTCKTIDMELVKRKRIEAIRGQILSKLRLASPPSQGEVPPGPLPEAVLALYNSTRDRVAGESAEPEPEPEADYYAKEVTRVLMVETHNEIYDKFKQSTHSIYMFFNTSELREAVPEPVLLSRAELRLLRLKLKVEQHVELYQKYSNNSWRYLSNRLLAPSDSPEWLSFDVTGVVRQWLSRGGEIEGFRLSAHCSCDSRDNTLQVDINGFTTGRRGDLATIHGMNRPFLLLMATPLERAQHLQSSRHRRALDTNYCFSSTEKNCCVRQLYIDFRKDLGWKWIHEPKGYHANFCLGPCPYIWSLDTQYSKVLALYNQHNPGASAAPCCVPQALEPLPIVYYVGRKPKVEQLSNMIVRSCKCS
# T1 sequence (Q14392 20-627, chain 2 of 2): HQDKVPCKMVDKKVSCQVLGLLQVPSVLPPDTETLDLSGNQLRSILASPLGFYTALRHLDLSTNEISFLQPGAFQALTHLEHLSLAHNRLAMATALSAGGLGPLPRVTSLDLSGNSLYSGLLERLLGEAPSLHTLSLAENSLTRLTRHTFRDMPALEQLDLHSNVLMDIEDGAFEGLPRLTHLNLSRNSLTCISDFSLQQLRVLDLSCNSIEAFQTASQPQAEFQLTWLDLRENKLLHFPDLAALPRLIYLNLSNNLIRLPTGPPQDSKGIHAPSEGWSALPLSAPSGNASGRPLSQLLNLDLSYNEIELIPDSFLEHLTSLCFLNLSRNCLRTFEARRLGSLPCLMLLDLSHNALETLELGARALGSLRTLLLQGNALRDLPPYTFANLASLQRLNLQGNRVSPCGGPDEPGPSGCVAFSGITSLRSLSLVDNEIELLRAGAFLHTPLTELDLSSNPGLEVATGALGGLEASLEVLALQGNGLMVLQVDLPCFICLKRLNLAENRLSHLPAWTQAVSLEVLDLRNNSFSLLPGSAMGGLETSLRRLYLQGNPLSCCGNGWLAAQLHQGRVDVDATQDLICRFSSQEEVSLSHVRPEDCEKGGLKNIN
# methodDescription: MSD-SET, hIgG4
pKd: −log10 of the molar value.
Overview of recorded pKd for various binders
measure: pKd

>  <binder>
Ab20 (antibody, IgG4, V domains shown) VH: EVQLLESGGGLVQPGGSLRLSCAASGFTFSAYAMTWVRQAPGKGLEWVSAISGSGGVTYYADSVKGRFTISRDNSKNTLYLQMNSLRAEDTAVYYCARVSSGHWDYDYWGQGTLVTVSS VL: DIQLTQSPSSLSASVGDRVTITCRASQSISSYLNWYQQKPGKAPKLLIYAASNLQSGVPSRFSGSGSGTDFTLTISSLQPEDFATYYCQQTYTVPLTFGGGTKVEIK

>  <dataValue>
8.96

$$$$
>  <binder>
Ab4 (antibody, IgG4, V domains shown, parent of Ab6) VH: EVQLVESGGGLVQPGGSLRLSCAASGFTFSSYSMNWVRQAPGKGLEWVSYISSSSSTIYYADSVKGRFTISRDNAKNSLYLQMNSLRAEDTAVYYCARGVLDYGDMLDPWGQGTLVTVSS VL: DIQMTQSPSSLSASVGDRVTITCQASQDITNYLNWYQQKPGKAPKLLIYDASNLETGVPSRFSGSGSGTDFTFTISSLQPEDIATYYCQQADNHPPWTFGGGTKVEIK

>  <dataValue>
8.60

$$$$
>  <binder>
Ab2 (antibody, V domains shown) VH: EVQLLESGGGLVQPGGSLRLSCAASGFTFADYAMTWVRQAPGKGLEWVSAISGSGAATYFADSVKGRFTISRDNSKNTLYLQMNSLRAEDTAVYYCARVSSGHWDFDYWGQGTLVTVSS VL: DIQLTQSPSSLSASVGDRVTITCRASQSISSYLNWYQQKPGKAPKLLIYAASNLQSGVPSRFSGSGSGTDFTLTISSLQPEDFATYYCQQTYTVPLTFGGGTKVEIKR

>  <dataValue>
8.85

$$$$
>  <binder>
Ab29 (antibody, IgG4, V domains shown) VH: EVQLVESGGGLVQPGRSLRLSCAASGFTFSSFAMNWVRQAPGKGLEWVSYISPDASTIYYAGSVKGRFTISRDNAKNSLYLQMNSLRAEDTAVYYCVRAVLDYGDMLDPWGQGTLVTVSS VL: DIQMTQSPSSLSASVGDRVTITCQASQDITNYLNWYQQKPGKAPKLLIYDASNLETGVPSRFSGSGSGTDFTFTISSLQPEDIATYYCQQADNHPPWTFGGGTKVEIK

>  <dataValue>
11.26

$$$$
>  <binder>
Ab24 (antibody, IgG4, V domains shown) VH: EVQLVESGGGLVQPGRSLRLSCAASGFTFSSFAMYWVRQAPGKGLEWVSYISPDASTIYYADSVKGRFTISRDNAKNSLYLQMNSLRAEDTAVYYCARGVLDYGDMLDPWGQGTLVTVSS VL: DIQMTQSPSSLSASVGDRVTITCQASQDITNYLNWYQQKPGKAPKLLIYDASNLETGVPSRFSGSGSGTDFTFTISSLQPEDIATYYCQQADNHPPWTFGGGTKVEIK

>  <dataValue>
10.72

$$$$
